assay: chemical recovery from spiked human plasma; higher = better extraction; settings: pooled human plasma; extraction method: SPE only (HLB 96-well);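 further: plasma spiked with over 400 chemicals, quantified by LC-HRMS and GC-HRMS via internal standard calibration against matrix-matched unspiked plasma extracts plus spike mix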
Measured Parameter: chemical recovery (%)

- Molecule: "CNC1=C(c2cccc(C(F)(F)F)c2)C(=O)C(c2ccccc2)O1 (centres undefined)"
  Measured Parameter: "chemical recovery"
  Endpoint Result: 51.2
- Molecule: "c1ccc2nc3ccccc3cc2c1"
  Measured Parameter: "chemical recovery"
  Endpoint Result: 28.4
- Molecule: "COc1cc(O)c(C(=O)c2ccccc2)cc1S(=O)(=O)O"
  Measured Parameter: "chemical recovery"
  Endpoint Result: 43.3
- Molecule: "CC(=O)c1cc(C(C)(C)C)cc2c1CCC2(C)C [Celestolide]"
  Measured Parameter: "chemical recovery"
  Endpoint Result: 1.5
- Molecule: "CCCCOC(=O)CCCCCCCCC(=O)OCCCC [Dibutyl-sebacate]"
  Measured Parameter: "chemical recovery"
  Endpoint Result: 28.7
- Molecule: "CNC(=O)O/N=C(\\SC)C(=O)N(C)C"
  Measured Parameter: "chemical recovery"
  Endpoint Result: 28
- Molecule: "Brc1ccc(Oc2c(Br)cc(Br)cc2Br)c(Br)c1"
  Measured Parameter: "chemical recovery"
  Endpoint Result: 3.57
- Molecule: "Cc1nccc2c1[nH]c1ccccc12"
  Measured Parameter: "chemical recovery"
  Endpoint Result: 34.9
- Molecule: "CC(Cc1ccc(C(C)(C)C(=O)O)cc1)CN1C[C@@H](C)O[C@@H](C)C1 (some centres undefined)"
  Measured Parameter: "chemical recovery"
  Endpoint Result: 42.9
- Molecule: "CCCCCCCCCC(=O)N(C)C [N,N-Dimethyldecan-1-amide]"
  Measured Parameter: "chemical recovery"
  Endpoint Result: 13.6
- Molecule: "Cc1c(C(C)C)c(=O)n(-c2ccccc2)n1C"
  Measured Parameter: "chemical recovery"
  Endpoint Result: 44.6
- Molecule: "COc1c(C)c2c(c(O)c1C/C=C(\\C)CCC(=O)O)C(=O)OC2"
  Measured Parameter: "chemical recovery"
  Endpoint Result: 45.5
- Molecule: "Nc1nc2c(ncn2COCC(=O)O)c(=O)[nH]1"
  Measured Parameter: "chemical recovery"
  Endpoint Result: 1.5
- Molecule: "CCCN(CCC)C(=O)SCc1ccccc1"
  Measured Parameter: "chemical recovery"
  Endpoint Result: 33.6

The origin of these recorded values is the supplement of paper PMC10702517.
